- subject of test: Fibroblast growth factor 22 (Homo sapiens)
- measurement notes: binders of human FGF22 protein, primary screen, FGF22 synaptogenesis inhibitor project, biophysical, thermal shift, single point (AID 651658)
- conditions used: recombinant FGF22 thermal shift, SYPRO orange fluorescence; at 9.99 µM; percent of sucrose octasulfate shift, DMSO zero
Hit rate of the full screen: of about 340,000 compounds, about 5,100 (1.5%) were called active.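 How the source made its calls: active means mean Tm shift, scaled 0 neutral to 100 positive control, at about 1.3% or above, every replicate too (limit read from the data); inconclusive means no clear call, values can overlap the other calls; inactive means the rest.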 Many of the other results were omitted from the sample, so actives are more common in it than they were.
Classes to choose from: active, inactive

A selection of reference data follows.
INSERT INTO results (molecule, assigned_label) VALUES
  ('C[C@@H]1CN([C@H](C)CO)C(=O)c2cc(NS(=O)(=O)c3ccccc3)ccc2O[C@@H](C)CCCCO[C@H]1CN(C)C(=O)C1CCCCC1', 'inactive'),
  ('COc1ccc(NC(=O)CCNS(=O)(=O)c2ccc3c(c2)c(=O)n(C)c(=O)n3C)cc1OC', 'inactive');

[ask] Record request — test call for `O=C(Cc1ccccc1Cl)N1CCOCC1`
[reply] inactive

[ask] Dear colleague, could you share the recorded outcome for `COc1cccc(CNC(=O)C[C@H]2CC[C@@H](NC(=O)C3CCC3)[C@@H](CO)O2)c1` when you have a moment?
[reply] inactive

[ask] For `O=C(COC(=O)Cn1cnc2ccccc21)Nc1cccc2c1C(=O)c1ccccc1C2=O` , which call appears in the assay record?
[reply] inactive

[ask] Write down the call the test reported for this molecule. Item: CC=Cc1ccc2n(c1=O)C[C@H]1[C@H](CO)[C@@H](C(=O)NCCc3cn(C)cn3)[C@@H]2N1C(=O)CC (mixture of isomers)
[reply] inactive

[ask] Would you mind telling me which call this test gave O=[N+]([O-])c1ccc2c(c1)C(O)n1nc(-c3ccccc3)nc1S2 (configuration not stated) ?
[reply] inactive

[ask] Called result for `COc1ccc(CNC(=O)C2CCN(S(C)(=O)=O)CC2)cc1`
[reply] active

[ask] For this molecule, state the assay outcome: `Cc1ccc(C(=O)N/C(=C/c2cccs2)C(=O)N2CCCCC2)cc1`
[reply] inactive

[ask] Identify the outcome logged in this assay for the molecule shown: `O=C(NC1Cc2ccccc2C1)[C@@H]1[C@@H](CO)[C@@H]2Cn3c(ccc(C4=CCCC4)c3=O)[C@H]1N2CC1CC1`
[reply] inactive

[ask] Call for entry `COc1ccc(CNC(=O)C2CCN(S(=O)(=O)c3ccc(SC)cc3)CC2)cc1` :
[reply] inactive

[ask] // param item: `O=S(=O)(Oc1ccccc1C(=S)N1CCOCC1)c1ccc(Cl)cc1` ; yields the recorded call
[reply] inactive

[ask] For `CC(=O)Oc1ccc2c(=O)oc(-c3ccc([N+](=O)[O-])cc3)nc2c1` , what call appears in the results of this test?
[reply] inactive

[ask] Any idea what this test logged for `O=C(N[C@@H]1C=C[C@H](CC(=O)N2CCCCC2)O[C@H]1CO)c1cccc(F)c1` ?
[reply] active

[ask] Give the logged outcome of this assay for the following molecule: `O=[N+]([O-])c1ccc2oc(-c3cccc(O)c3)nc2c1`
[reply] active

* * *

- subject of test: Fibroblast growth factor 22 (Homo sapiens) (UniProt Q9HCT0)
- Sequence (Q9HCT0 whole entry, looked up): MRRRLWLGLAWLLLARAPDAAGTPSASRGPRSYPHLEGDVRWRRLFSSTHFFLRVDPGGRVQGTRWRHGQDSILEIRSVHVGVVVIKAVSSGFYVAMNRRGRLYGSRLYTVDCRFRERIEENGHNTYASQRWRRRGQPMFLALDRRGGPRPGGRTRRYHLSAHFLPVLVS
- measurement notes: binders of human FGF22 protein, primary screen, FGF22 synaptogenesis inhibitor project, biophysical, thermal shift, single point (AID 651658)
- conditions used: recombinant FGF22 thermal shift, SYPRO orange fluorescence; at 9.99 µM; percent of sucrose octasulfate shift, DMSO zero
Out of some 340,000 compounds screened, about 5,100 (1.5%) were called active.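 How the source made its calls: active means mean Tm shift, scaled 0 neutral to 100 positive control, at about 1.3% or above, every replicate too (limit read from the data); inconclusive means no clear call, values can overlap the other calls; inactive means the rest.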 The entries come from a sample that favours actives as a whole.
Choose one outcome from this list and give only that: Yes for active, No for inactive

INSERT INTO assay_data (record_smiles, assigned_label) VALUES
  ('CCC(=O)N1CC2(C1)[C@H](c1ccc(-c3ccc(C)cc3)cc1)[C@H](CO)N2S(C)(=O)=O', 'No'),
  ('C[C@@H]1CN([C@H](C)CO)S(=O)(=O)c2ccc(-c3ccncc3)cc2O[C@H]1CN(C)S(=O)(=O)c1ccccc1F', 'No'),
  ('CC(=O)Nc1ccc(-c2csc(NC(=O)Nc3ccccc3)n2)cc1', 'Yes');

[ask] Any idea what this test logged for `O=C(NCc1cccnc1)C(=O)Nc1nc(-c2ccccc2)cs1` ?
[reply] No

[ask] Recorded test call requested for `O=C(CCC(=O)c1cccs1)Nc1nc2ccccc2s1`
[reply] No
